The values you see were collected from ChEMBL document CHEMBL4422622.

- Assay procedure: Terminal half life in Sprague-Dawley rat at 1 mg/kg, iv by LC-MS/MS analysis
- Assay type: ADME, organism-based
- Applied conditions: in vivo, read-out: beta t1/2 (converted)
Experimental endpoint: half-life (h)
Only the number, expressed in h, is required.

Prompt: Endpoint output: half-life of C[C@H]1COc2cc(F)ccc2N1C(=O)c1ccc2c(c1)NC(=O)CO2 . Value?
Completion: 2.4

###

- Assay procedure: Kinetic solubility of compound at pH 7.4 after 24 hrs by shake-flask assay
- Format: physicochemical
- Applied conditions: buffer, read-out: -log(solubility) (converted)
Experimental endpoint: solubility kinetic at 24 h

Prompt: Endpoint output: solubility kinetic at 24 h of O=C1COc2ccc(C(=O)N3c4ccc(Cl)cc4C[C@@H]3CCO)cc2N1 . Value?
Completion: 2 µM

Prompt: Endpoint output: solubility kinetic at 24 h of O=C(O)C[C@H]1COc2cc(Cl)ccc2N1C(=O)c1ccc2c(c1)NC(=O)CO2 . Value?
Completion: 1000 µM

Prompt: Endpoint output: solubility kinetic at 24 h of N#CC[C@H]1COc2ccccc2N1C(=O)c1ccc2c(c1)NC(=O)CO2 . Value?
Completion: 794 µM

Prompt: Endpoint output: solubility kinetic at 24 h of COC(=O)C[C@H]1COc2cc(F)ccc2N1C(=O)c1ccc2c(c1)NC(=O)CO2 . Value?
Completion: 398 µM

Prompt: Endpoint output: solubility kinetic at 24 h of Cc1ccc(C2CCCCN2S(=O)(=O)c2ccc3c(c2)NC(=O)CO3)cc1 (racemic) . Value?
Completion: < 0.794 µM
